assay_explanation: Dose linearity and effect of feeding, PK in cats (Example 10)
Assay type: in vivo, cat
condition_details: female, serum, po, 6 mg/kg, cats, Group 3, 6 mg/kg capsule, Fasted, Female, mean

smiles_str: CCc1nc2c(C)nc(C)cc2n1-c1ccc(CCNC(=O)NS(=O)(=O)c2ccc(C)cc2)cc1
AUC(0-t) (ng·h/mL): 6130

----------
assay_explanation: Crossover PK of tablet vs methylcellulose suspension in beagle dogs (Example 15)
Assay type: in vivo, beagle dog
condition_details: both sexes, beagle, dog, serum, po, 500 mg, beagle dogs, both sexes combined, Day 0, 500-mg tablet

smiles_str: CCc1nc2c(C)nc(C)cc2n1-c1ccc(CCNC(=O)NS(=O)(=O)c2ccc(C)cc2)cc1
measure_unit: µg/mL
Cmax: 96.1

----------
assay_explanation: Dose linearity and effect of feeding, PK in cats (Example 10)
Assay type: in vivo, cat
condition_details: male, serum, po, 6 mg/kg, cats, Group 3, 6 mg/kg capsule, Fasted, Male, mean; read-out: Cmax
recorded_endpoint: Cmax (µg/mL)

compound: CCc1nc2c(C)nc(C)cc2n1-c1ccc(CCNC(=O)NS(=O)(=O)c2ccc(C)cc2)cc1 [grapiprant]
recorded_endpoint: Cmax
quantitative_result: 2.97

----------
assay_explanation: Dose linearity and effect of feeding, PK in cats (Example 10)
Assay type: in vivo, cat
condition_details: both sexes, serum, po, 6 mg/kg, Group 3 fasted cats, single oral 6 mg/kg capsule, males and females; read-out: Mean Cmax
Protocol: Grapiprant was blended in a mixture of excipients as shown in Table 14 and administered orally by capsule to male and female cats. The day of dosing was defined as Day 0. Following dosing, the animals were evaluated for clinical signs. Blood samples were collected prior to dosing and at 0.25, 0.5, 1, 2, 4, 8, 12, and 24-hours postdose. The blood samples were processed to serum and analyzed for grapiprant concentration. There were no test article-related clinical signs. […]

smiles_str: CCc1nc2c(C)nc(C)cc2n1-c1ccc(CCNC(=O)NS(=O)(=O)c2ccc(C)cc2)cc1
Cmax: 2970 to 3110 ng/mL

----------
assay_explanation: Dose linearity and effect of feeding, PK in cats (Example 10)
Format: in vivo, cat
condition_details: both sexes, serum, po, 2 mg/kg, Group 1 fed cats, single oral 2 mg/kg capsule, males and females; read-out: mean Tmax
recorded_endpoint: Tmax

molecule: CCc1nc2c(C)nc(C)cc2n1-c1ccc(CCNC(=O)NS(=O)(=O)c2ccc(C)cc2)cc1 [grapiprant]
recorded_endpoint: Tmax
result: 1.33 to 1.65 h

----------
assay_explanation: Dose linearity and effect of feeding, PK in cats (Example 10)
Format: in vivo, cat
condition_details: male, serum, po, 2 mg/kg, cats, Group 2, 2 mg/kg capsule, Fasted, Male, mean; read-out: Cmax

compound: CCc1nc2c(C)nc(C)cc2n1-c1ccc(CCNC(=O)NS(=O)(=O)c2ccc(C)cc2)cc1 [grapiprant]
measure_unit: ng/mL
Cmax: 1100

----------
assay_explanation: Pharmacokinetics in cats FPK-13-004 (Example 13)
Type: in vivo, cat
condition_details: both sexes, serum, 10 mg/animal; cats, single dose 10 mg (2 mg/kg), mean of all animals; read-out: Cmax
recorded_endpoint: Cmax (ng/mL)

smiles_str: CCc1nc2c(C)nc(C)cc2n1-c1ccc(CCNC(=O)NS(=O)(=O)c2ccc(C)cc2)cc1
measure_unit: ng/mL
quantitative_result: 4430
